Assay type: in vivo
experimental parameters: male, C57BL/6N, mouse, plasma, oral, 5 g/l, Concentration in plasma, drink at 5 g/l
readout label: concentration at 1 week
Put down the number, then write its unit next to it.

Ask: What measured concentration at 1 week goes with COc1cccc(CN)c1O [3-MoSA, 3-methoxy-2-hydroxybenzylamine] ?
Result: 5400 ng/mL

----------
Format: in vivo
experimental parameters: male, C57BL/6N, mouse, spleen, oral, 10 g/l, Concentration in spleen, drink at 10 g/l
readout label: concentration at 1 week
Put down the number, then write its unit next to it.

Ask: What measured concentration at 1 week goes with COc1cccc(CN)c1O [3-MoSA, 3-methoxy-2-hydroxybenzylamine] ?
Result: 192000 ng/g
